B1: TNNI2 (parent)
chain: DWRKNIEEKSGMEGRKKMFESES

Variants of: B1
Test: protein stability index of a GFP-peptide fusion (GPS, HEK-293T) (PSI 1-6); higher = more stable;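 further: lentivirally expressed fusions sorted by FACS into six bins by GFP to DsRed ratio, PSI derived from sequencing read proportions per bin multiplied by bin number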
Conditions: c terminus: native
Please provide measured protein stability index for the entries that follow.
Write the value as a bare number.

For W2H the variant record lists protein stability index as 2.95

response.value for G11D (field: protein stability index) = 1.99

Record summary for R15P : reported protein stability index = 2.98

// field: protein stability index; key: E20K ; value = 2.92

Input W2V . Output protein stability index: 2.96

protein stability index reported for this variant E7W : 2.01

// protein stability index lookup, variant = G14M , result: 1.99

# protein stability index of K4T = 2.98

Lab note: N5R gave protein stability index of 2.95

Value of measured protein stability index for the entry E13M : 2.03
